Data provenance is ChEMBL document CHEMBL1148283.

- MEASURED TARGET: Nitric oxide synthase 3 (Homo sapiens, UniProt P29474)
- Sequence (P29474 whole entry): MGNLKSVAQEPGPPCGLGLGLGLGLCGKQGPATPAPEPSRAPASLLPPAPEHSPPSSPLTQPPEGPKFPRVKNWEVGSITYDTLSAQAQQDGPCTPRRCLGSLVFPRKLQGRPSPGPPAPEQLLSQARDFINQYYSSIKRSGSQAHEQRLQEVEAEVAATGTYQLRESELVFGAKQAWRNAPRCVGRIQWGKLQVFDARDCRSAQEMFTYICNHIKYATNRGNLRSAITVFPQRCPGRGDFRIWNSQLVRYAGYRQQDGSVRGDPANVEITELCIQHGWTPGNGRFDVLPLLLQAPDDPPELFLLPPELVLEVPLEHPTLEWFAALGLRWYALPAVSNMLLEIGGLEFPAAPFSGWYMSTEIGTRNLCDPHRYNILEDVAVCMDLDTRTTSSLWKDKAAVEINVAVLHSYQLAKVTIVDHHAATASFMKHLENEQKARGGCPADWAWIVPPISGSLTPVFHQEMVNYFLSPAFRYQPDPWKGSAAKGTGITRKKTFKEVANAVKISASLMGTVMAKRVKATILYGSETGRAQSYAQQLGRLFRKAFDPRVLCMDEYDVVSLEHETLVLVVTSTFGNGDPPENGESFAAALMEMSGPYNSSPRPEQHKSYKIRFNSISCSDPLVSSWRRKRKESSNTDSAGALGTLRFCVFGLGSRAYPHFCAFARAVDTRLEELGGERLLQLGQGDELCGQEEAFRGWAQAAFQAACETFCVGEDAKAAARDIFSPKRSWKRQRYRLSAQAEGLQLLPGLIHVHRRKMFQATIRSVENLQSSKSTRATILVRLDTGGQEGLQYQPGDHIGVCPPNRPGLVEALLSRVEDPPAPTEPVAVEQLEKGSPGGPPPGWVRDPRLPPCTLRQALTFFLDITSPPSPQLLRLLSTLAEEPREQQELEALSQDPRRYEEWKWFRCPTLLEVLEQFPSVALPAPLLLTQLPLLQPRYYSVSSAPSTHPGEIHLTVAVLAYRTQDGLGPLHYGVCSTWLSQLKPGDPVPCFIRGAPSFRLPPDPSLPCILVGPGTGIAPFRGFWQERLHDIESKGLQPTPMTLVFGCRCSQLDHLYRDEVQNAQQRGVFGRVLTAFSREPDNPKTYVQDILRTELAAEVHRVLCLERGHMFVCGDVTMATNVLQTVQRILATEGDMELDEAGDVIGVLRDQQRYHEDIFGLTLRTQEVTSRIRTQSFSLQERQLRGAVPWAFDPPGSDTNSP
VALUE KIND: pIC50
One number for each entry, as −log10 of the molar value.

Example entries begin here.
[[record]]
molecule = "COc1ccnc(N)c1"
value_kind = "pIC50"
measurement = 6.00

[[record]]
molecule = "COc1ccnc(NC2CCN(C(=O)c3ccccc3)CC2)c1"
value_kind = "pIC50"
measurement = 4.00


// next item, pIC50 requested
Entry CCCC1CCCCCC(N)=N1 (centres undefined) — recorded pIC50 = 5.32
